Data origin, for the record: the supplement of paper PMC3334620

Target: Hmlalpha2 (UniProt P0CY09)
Sequence: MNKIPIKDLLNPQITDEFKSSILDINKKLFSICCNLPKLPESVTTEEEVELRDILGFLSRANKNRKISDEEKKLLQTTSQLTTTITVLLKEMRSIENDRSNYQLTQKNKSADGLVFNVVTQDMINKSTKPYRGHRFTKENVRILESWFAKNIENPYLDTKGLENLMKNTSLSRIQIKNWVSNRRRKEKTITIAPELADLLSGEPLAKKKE
Experiment: PBM E-score (8-mer binding enrichment) (E-score (-0.5 to 0.5)); higher = stronger / more preferred TF binding
Settings: protein concentration: 200 nM; construct: GST-full length
Whole data set: some 33,000 sequences, median “E-score (-0.5 to 0.5)” near -0.04, cut for the highest 2% near 0.36. The entries come from a sample that favours the highest values as a whole.
Class key for PBM E-score values: low-valued (below -0.1), mid-valued (-0.1 to below 0.2), high-valued (0.2 or more)

Query: # bin label for GGCGGTCA
Result: low-valued

Query: Which band does ACGATTTA fall in?
Result: high-valued

Query: Which category fits this record: AAGGATCT
Result: low-valued

Query: Tag the class for ACGCAAAA
Result: mid-valued

Query: Place this sequence in its band: CCGGGCAG
Result: low-valued

Query: Please let me know in which category the item AGAACATA belongs.
Result: high-valued

Query: Bin? CAAAGGAG
Result: mid-valued

Query: Looking at CCGCTCCC , which class would you pick?
Result: low-valued

Query: Bin this entry: CAGAGCTC
Result: low-valued

Query: Lab log: CGTGTATC — assign PBM E-score category
Result: high-valued

Query: Which category does the recorded PBM E-score put AAAACATA in?
Result: high-valued

Query: Band assignment needed for CAGCCTTC please.
Result: low-valued

Query: Consider AAAACATT . To which PBM E-score class does it belong?
Result: high-valued

Query: Assign a bin to AAAACATG
Result: high-valued

Query: Into which bin does this sequence go? GTTGTTGA
Result: high-valued

Query: Which category does the recorded PBM E-score put AGGGTGTA in?
Result: mid-valued

Query: Class for CATTCTCG ?
Result: mid-valued

Query: # bin label for GATGAAGC
Result: low-valued

Query: Kindly state the category for this sequence: AAAACATC
Result: high-valued

Query: Sort CACAAAGG into one of the categories.
Result: mid-valued

Query: Band assignment needed for AACTGTTG please.
Result: low-valued

Query: Assign a bin to CGTGTATA
Result: high-valued

====

Target: Hmlalpha2 (UniProt P0CY09)
Sequence: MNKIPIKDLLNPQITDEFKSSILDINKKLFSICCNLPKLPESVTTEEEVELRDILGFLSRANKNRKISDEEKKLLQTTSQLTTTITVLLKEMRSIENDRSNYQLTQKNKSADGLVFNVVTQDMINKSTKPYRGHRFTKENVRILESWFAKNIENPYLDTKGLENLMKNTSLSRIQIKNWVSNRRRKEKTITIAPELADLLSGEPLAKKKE
Assay: PBM E-score (8-mer binding enrichment) (E-score (-0.5 to 0.5)); higher = stronger / more preferred TF binding
Conditions: protein concentration: 200 nM; construct: GST-full length
The full ranking holds about 33,000 sequences; the median of “E-score (-0.5 to 0.5)” is about -0.04, and the highest 2% start at about 0.36. For the sample, the highest values were picked, then their nearest neighbours and some sequences at random.
REPORTED PROPERTY: PBM E-score

Query: Test system Hmlalpha2 (UniProt P0CY09); read-out PBM E-score; what value for AACATAGA ?
Result: 0.284

Query: # query: PBM E-score | item CCAGTAGC | system: Hmlalpha2 (UniProt P0CY09)
Result: -0.157

Query: Kindly state the measured PBM E-score obtained for GGTGTAAA with Hmlalpha2 (UniProt P0CY09).
Result: 0.351

Query: Fill in the recorded PBM E-score for this sequence, with Hmlalpha2 (UniProt P0CY09) as test system: CCTATTCA
Result: -0.319

Query: Recorded PBM E-score for GAAGCGGC with Hmlalpha2 (UniProt P0CY09), please?
Result: -0.131

Query: Value wanted: PBM E-score (Hmlalpha2 (UniProt P0CY09)) of entry ACTTTAGA
Result: -0.0293

Query: Hmlalpha2 (UniProt P0CY09) / PBM E-score / ATTGTAAG : value?
Result: 0.0623

Query: # returns recorded PBM E-score (system: Hmlalpha2 (UniProt P0CY09)) for AATCGTAC
Result: 0.102

Query: Value wanted: PBM E-score (Hmlalpha2 (UniProt P0CY09)) of entry CCTGTAAA
Result: 0.328

Query: Requested read-out PBM E-score, target or system Hmlalpha2 (UniProt P0CY09), entry AGCGAGTC
Result: -0.136

Query: Please tell me: PBM E-score of AGTGTAAA , system Hmlalpha2 (UniProt P0CY09)?
Result: 0.38

Query: What measured PBM E-score is associated with TGCCTCCA on Hmlalpha2 (UniProt P0CY09)?
Result: -0.233

Query: Form field - read-out: PBM E-score; system: Hmlalpha2 (UniProt P0CY09); submitted item: CTTGTAAC
Result: 0.36

Query: GET /values?readout=PBM E-score&system=Hmlalpha2 (UniProt P0CY09)&item= GCTGTAAA
Result: 0.336

Query: Lab request: please report PBM E-score under test system Hmlalpha2 (UniProt P0CY09) for AACATAAC
Result: 0.403

Query: Give recorded PBM E-score with Hmlalpha2 (UniProt P0CY09) for the following sequence: CTTGTAAA
Result: 0.452

Query: Give Hmlalpha2 (UniProt P0CY09) PBM E-score for CTCATGTA
Result: 0.454

Query: Record ATTGTAAC : what is its PBM E-score with Hmlalpha2 (UniProt P0CY09)?
Result: 0.221

Query: Form entry - test system: Hmlalpha2 (UniProt P0CY09); read-out: PBM E-score; sequence: CTCATGTC
Result: 0.295

Query: Form field - read-out: PBM E-score; system: Hmlalpha2 (UniProt P0CY09); submitted item: AACATAAT
Result: 0.287

Query: Request: PBM E-score, test system Hmlalpha2 (UniProt P0CY09), entry ATCATAAG
Result: -0.00054

Query: Missing value: PBM E-score, Hmlalpha2 (UniProt P0CY09), entry CACATAAG . Fill in?
Result: 0.117

====

Biological target: Hmlalpha2 (UniProt P0CY09)
Sequence: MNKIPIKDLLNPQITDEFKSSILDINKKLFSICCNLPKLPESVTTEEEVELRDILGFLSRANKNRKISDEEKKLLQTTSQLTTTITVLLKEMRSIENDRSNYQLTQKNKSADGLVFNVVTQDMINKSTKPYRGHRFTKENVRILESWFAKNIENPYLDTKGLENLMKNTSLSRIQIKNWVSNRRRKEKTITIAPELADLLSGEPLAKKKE
Assay: PBM E-score (8-mer binding enrichment) (E-score (-0.5 to 0.5)); higher = stronger / more preferred TF binding
Details: protein concentration: 200 nM; construct: GST-full length
Whole data set: some 33,000 sequences, median “E-score (-0.5 to 0.5)” near -0.04, cut for the highest 2% near 0.36. The sample holds the highest values, similar sequences and a random draw of the others, so the mix is not that of the screen.
Rule: PBM E-score under 0.2 gives false (0), otherwise true (1).

Query: Textbook exercise: given the entry ATTCTTAA , state whether its PBM E-score is greater than or equal to 0.2.
Result: false (0)

Query: Please tell me: is the sequence TCTATACA at or over 0.2 in terms of PBM E-score?
Result: true (1)

Query: Has CTTTTACA a recorded PBM E-score greater than or equal to 0.2?
Result: true (1)

Query: Quick check, PBM E-score >= 0.2? GCTTTACC
Result: true (1)

Query: Is it the case that ATTTTACA has PBM E-score reaching or exceeding 0.2?
Result: true (1)

Query: Could you verify whether the entry GCTTTAAA shows PBM E-score of no less than 0.2?
Result: false (0)

Query: Could you verify whether the entry CTTGGTCC shows PBM E-score of no less than 0.2?
Result: false (0)

Query: Check the entry ATTAAGTC : does PBM E-score equal or exceed 0.2?
Result: false (0)

Query: # check: PBM E-score of ACTTTACC is greater than or equal to 0.2
Result: false (0)

Query: Assess whether reported PBM E-score for GCCACCGC sits at 0.2 or higher.
Result: false (0)

Query: Decide: is the reported value of PBM E-score for ACTTTACA equal to or greater than 0.2?
Result: true (1)

Query: Please tell me: is the sequence AAGCATGT at or over 0.2 in terms of PBM E-score?
Result: true (1)

Query: Does the reported PBM E-score for TATCAAAA fall at or above the 0.2 mark?
Result: false (0)

Query: Can ATTCTGCA be said to have PBM E-score at or above 0.2?
Result: false (0)

Query: Record CTTCACCA ; criterion: PBM E-score no lower than 0.2. Met?
Result: false (0)

Query: Quick check: does AGAGAATG have PBM E-score greater than or equal to 0.2?
Result: false (0)

Query: Does CTTTTACC have a reported PBM E-score of at least 0.2?
Result: false (0)

Query: Please check the record AAGCATGC and state if its PBM E-score is at or above 0.2.
Result: false (0)

Query: Identify whether the reported PBM E-score of the following sequence is 0.2 or greater: GGTATACA
Result: true (1)

Query: Given AGTATACA , state whether its PBM E-score is at least 0.2.
Result: true (1)

Query: In plain terms: is recorded PBM E-score at least 0.2 for AACCATGA ?
Result: false (0)

Query: Please check the record ATCAAGTA and state if its PBM E-score is at or above 0.2.
Result: true (1)
